# Test system: Perkinsus marinus PRA240
# Assay Info: ATP content (proliferation) relative to DMSO control; higher = more parasite growth (less inhibition)
# Conditions Used: 20 µM; 4 days
// ATP content lookup, one value per entry

Compound	Unit Of Measure	ATP content
COc1ccc(C2C(C(=O)Nc3cccc(OC)c3)c3ccccc3C(=O)N2C2CCCCC2)cc1 (stereo not given)	%	94.3
COc1cc(OC)cc(N2C(=O)N(Cc3ccc(C(C)(C)C)cc3)c3ccccc3S2(=O)=O)c1	%	130
Cc1ccc2c(C)nc(Nc3nc(C)cc(-c4ccccc4)n3)nc2c1	%	93
O=C1c2ccc3c4c(ccc(c24)C(=O)N1CCCCO)C(=O)N(CCCCO)C3=O	%	50.5
CCOc1cc(Cl)c(C(C)NC(=O)c2cccc(OC)c2)cc1OCC (stereo not given)	%	85.3

###

# System: Perkinsus marinus PRA240
# Assay Info: ATP content (proliferation) relative to DMSO control; higher = more parasite growth (less inhibition)
# Conditions Used: 20 µM; 4 days

Compound	Unit Of Measure	ATP content
CN(C)CCNc1cc(-c2ccccc2)nc2ccccc12	%	106
CC(O)(c1ccc(Cl)cc1)C(CN1CCCCC1)c1ccccc1 (stereo unspecified)	%	79.2
O=C(NC1CCN(Cc2ccccc2)CC1)c1cc(-c2cccnc2)nc2ccc(Cl)cc12	%	137
CN(C)CCCNCc1ccc(-c2ccc(F)c(Cl)c2)o1	%	123
CN1c2ccccc2N(C)C1c1ccc2c(c1)OCO2	%	87.3
CN(C)c1ccc(N2C(N)=NC(N)=NC2(C)C)cc1	%	114
COc1ccc(C(=O)NC(c2ccccc2Cl)c2cc(Cl)c3cccnc3c2O)cc1 (stereo unspecified)	%	29.8
Cc1c(C)n(Cc2ccc(F)cc2)c2ccc(C(=O)NCc3ccco3)cc12	%	111
FC(F)(F)c1cccc(Nc2nc(-c3ccccc3)nc3ncccc23)c1	%	108
Oc1c(CN2CCN(c3ccccc3F)CC2)cc(Br)c2cccnc12	%	105
CCCCc1ccc(NS(=O)(=O)c2cc3c4c(c2)CCN4C(=O)CC3)cc1	%	115

###

# key: entry, value: ATP content
# System: Perkinsus marinus PRA240
# Assay Info: ATP content (proliferation) relative to DMSO control; higher = more parasite growth (less inhibition)
# Conditions Used: 20 µM; 4 days

Compound	ATP content [%]
COc1cccc(O)c1CN1CCC2(CCCN(Cc3ccc(F)cc3)C2)C1 (centres undefined)	70.7
CCN(CC)CCNc1ncnc2c1[nH]c1ccc(Br)cc12	141
CCOc1cc2c(cc1OCC)C(c1cc(Cl)ccc1O)NCC2 (centres undefined)	91.6
Oc1c2c(nc3cc(-c4ccccc4)nn13)CCCC2	47.5
COc1ccc(C(=O)Nc2ccc(Cl)cc2C(=O)Nc2ccncc2)cc1	106
Cc1sc(NC(=O)c2ccco2)c(C(c2cccnc2)N2CCC(Cc3ccccc3)CC2)c1C (centres undefined)	48.5
CCOc1cc2c(cc1OCC)C(c1cc(C)c(O)c(C)c1)NCC2 (centres undefined)	133
COc1cc(C(=O)Nc2nc3c(cc4c5c(cccc53)CC4)s2)cc(OC)c1OC	89.8
OC1=C2C(=Nc3ccccc3SC2c2ccc(Br)cc2)c2ccccc21 (centres undefined)	45.9

###

# System: Perkinsus marinus PRA240
# Assay Info: ATP content (proliferation) relative to DMSO control; higher = more parasite growth (less inhibition)
# Conditions Used: 20 µM; 4 days

Compound	ATP content, %
COc1cccc(Nc2nc(NCCO)c3ccccc3n2)c1	77.5
Cc1ccc2nc(C)cc(Nc3cccc(C(F)(F)F)c3)c2c1	121
COCCNC(=O)c1ccc(OC2CCN(Cc3ccc(F)c(F)c3)CC2)c(Cl)c1	86.4
CCOC(=O)c1cnc2c(C)cccc2c1Nc1ccc(C(C)=O)cc1	122
COc1ccc2c(c1OC)C(=O)N1c3ccccc3N=C(c3ccc(C)cc3)CC21 (centres undefined)	155
OC(CNC1CCCCC1)Cn1c2ccc(I)cc2c2cc(I)ccc21 (centres undefined)	4.02
O=C(Nc1ccc(F)c(Cl)c1)Nc1ccc(Cl)c(Cl)c1	46.8
CCOC(=O)C1(Cc2ccccc2)CCN(Cc2cccc(OC)c2O)CC1	143
CCOc1cc(Br)c(C(C)NC(=O)c2cccc(OC)c2)cc1OCC (centres undefined)	115
